- assay_details: qHTS for induction of synthetic lethality in tumor cells producing 2HG: qHTS for the HT-1080-IDH1KD cell line; further: potency means the concentration at half of the fitted maximal effect
- conditions: HT-1080 IDH1 knockdown viability, ATP luminescence, 48 h; series mostly up to 46.1 µM
Among all 360,000 compounds or so, about 7,500 (2.1%) were called active. Inconclusive results (about 8%) are left out. The entries come from a sample that favours actives as a whole.
endpoint_name: Potency

compound: Cc1ccc(-c2cc(=O)c3ccc(F)cc3[nH]2)cc1
observed: inactive

compound: CCNC(=O)c1ccc(OCC(=O)Nc2ccc(F)cc2)c(OC)c1
observed: inactive

compound: Cc1cc(S(=O)(=O)Nc2ccc(C(=O)NCC(c3ccco3)N3CCCC3)cc2)ccc1F (stereo not drawn)
observed: inactive

compound: CN(Cc1ccccc1)C(=O)[C@@H]1CCCN1C(=O)[C@@H]1CCCN1C(=O)c1c(F)cccc1F
observed: inactive

compound: C[C@]12CC[C@H](O)CC1=CCC1C2CC[C@@]2(C)C1CC[C@@H]2NC(=O)CCC(=O)O (stereo partly drawn)
observed: inactive

compound: CCCCN(C(C)=O)c1ccc2c(c1)C1CC2CCN1Cc1ccccc1 (stereo not drawn)
observed: inactive

CC(=O)OC1CCC2(C)C(=CCC3C4CC(=O)N(O)C(=O)C4(C)CCC32)C1 (stereo not drawn) has a reported Potency of 25.9 µM (active)

N#C/C(=C(/O)COC(=O)COc1ccc(Cl)cc1)c1nc2ccccc2[nH]1 has a reported Potency of inactive

CSc1ncc(Sc2ccccc2)c(C(=O)O)n1 has a reported Potency of inactive

COc1ccc(CNC(=O)/C(C#N)=C/c2cccc(OC)c2OC)cc1 has a reported Potency of 25.9 µM (active)

Cc1ccc(-c2nc3c(C)cc(Br)cn3c2Cc2ccccc2)cc1 has a reported Potency of inactive

COc1cccc(OCC(=O)NCCS(=O)(=O)N2CCN(c3ccccc3)CC2)c1 has a reported Potency of inactive

Cc1ccccc1OS(=O)(=O)c1cccc([N+](=O)[O-])c1 has a reported Potency of inactive

O=C(C1CCCO1)N1CCN(C(=O)C23CC4CC(CC(C4)C2)C3)CC1 (stereo not drawn) has a reported Potency of inactive

CC(=N\NC(=O)c1cc(Br)ccc1O)/C(=N/O)C(=O)Nc1ccccc1 has a reported Potency of 16.4 µM (active)

O=C(OC1CC2CC1[C@H]1CCCCN1C2=O)N1CCOCC1 (stereo partly drawn) has a reported Potency of inactive

COc1cc(C#Cc2ccc3cc(CCCO)oc(=O)c3c2)cc(OC)c1 has a reported Potency of 2.06 µM (active)

Cc1cccc(C)c1NC(=O)C(c1cccc(F)c1)N1CCN(C)CC1 (stereo not drawn) has a reported Potency of inactive

Nc1nc2c(Br)ccc(Br)c2cc1C(=O)NCCc1ccccc1 has a reported Potency of inactive

O=[N+]([O-])c1ccc(C(S(=O)(=O)Cc2ccccc2)S(=O)(=O)Cc2ccccc2)cc1 has a reported Potency of inactive

====

- assay_details: qHTS for induction of synthetic lethality in tumor cells producing 2HG: qHTS for the HT-1080-IDH1KD cell line
- conditions: HT-1080 IDH1 knockdown viability, ATP luminescence, 48 h; series mostly up to 46.1 µM
Screen size: about 360,000 compounds; about 7,500 (2.1%) were called active. Not shown: some 8% with an inconclusive outcome. Calls come from the whole dose curve; as a rule, active = well fitted cell-killing curve with a large enough effect; inconclusive = small, poorly fitted or top-dose-only effect, or effect the other way, or another doubt; inactive = no such curve, though single readings can be large or run the other way. The entries come from a sample that favours actives as a whole.
Respond with a class label; see label 1 (active), label 0 (inactive)

Would you please look over these solved cases?
compound: CCn1cc(CN2CCC(n3nccc3NC(=O)CCCc3ccccc3)CC2)c(C)n1
qualitative_label: label 0
//
compound: Cc1cc(Br)cn2c(Cc3ccccc3C(F)(F)F)c(C3CCCCC3)nc12
qualitative_label: label 0

Could you check what this test reported for CCNC(=O)C1(C)CCCN(C(=O)c2c(C)noc2C)C1 (stereo not given) ?
label 0

Could you check what this test reported for Cc1noc(C)c1S(=O)(=O)N(C)C[C@H]1OCCCC[C@@H](C)Oc2ccc(NC(=O)CCCN(C)C)cc2C(=O)N([C@H](C)CO)C[C@@H]1C ?
label 0

Could you check what this test reported for C=CCSc1nsc(NC(=O)Nc2cccc(C(C)=O)c2)n1 ?
label 1

Could you check what this test reported for CC(=O)c1cc(CN2CCC(C(=O)Nc3cccc(-c4cscn4)c3)CC2)cs1 ?
label 0

Could you check what this test reported for CCN(C(=O)Nc1cccc2ccccc12)c1ccccc1 ?
label 0

Ref: PubChem BioAssay AID686971
